# System: MS2 coat protein
# protocol_notes: apparent KD of MS2 coat protein; designed switch direction (-1 OFF switch, 1 ON switch): -1; higher = weaker reporter binding
# test_parameters: input ligand: FMN 200 uM
measure_name: apparent KD of MS2 coat protein (nM)
Reply numerically in nM, unit not repeated.

Please review the following examples before continuing.
sequence_string	display_unit	apparent KD of MS2 coat protein
CCGGAAAGGAAGGAUAUGCUAGACGAAAGUCUAGCAGAAGGUCCUACAUGAGGAUCACCCAUGUGGUCCUCCGG [Eli x6 4.06] (Eterna round: R97, puzzle: Exclusion 6)	nM	298
CAGCUGAAUGUCAGGAUAUCUAGAGCCUCGGCUCUAGAGAAGGGACAUGAGGAUCACCCAUGUCACUCCAGCUG [BmEx4/3-B2] (Eterna round: R97, puzzle: Brourd's mod of Exclusion 4)	nM	22.4
CCGAUGUCAGGAUAUAGCGGUCGCUGCCACGGUGGAGUCUGCUAGAAGGGACAUGAGGAUCACCCAUGUCGAAC [Eternabot (Original) Solution 49] (Eterna round: R97, puzzle: Exclusion 4)	nM	57.7
UGUUGUUACGCAGGAUAUGAGGAUCACCCAUAUAAGGAUAUCGAAAGAGAAGGUCUGAGGAUUACCCAGAAGGGCGGGUUAACA [pwkr exNG2 2xF5 2xFMN.29] (Eterna round: R96, puzzle: Exclusion NG 2)	nM	227
CUGUGCACGCUGCGGUCCUACAUGAGGAUCACCCAUGUGGUCUGGUGGCGUGGGUCACCGGACUUGGCUCGUCUUGG [salish99_S_TOV1_R5_063] (Eterna round: R97, puzzle: Sensor, turn-off variant 1)	nM	22
GCCUUAUCCGUCAGGAUAUACAGCCGCUCCCUGUUGUAGAAGGGACAUGAGGAUCACCCAUGUACGUACCACCG [alecazam8] (Eterna round: R97, puzzle: Brourd's mod of Exclusion 4)	nM	28.1
UACGAACUAGGAUAUGCAAAGGGCUCGCUUUCCUUCGAUAAACUUGAGGAUCACCCAAGUAGAAGGAGUUUGUA [Mod 39 - Jieux - Exclusion 2] (Eterna round: R97, puzzle: Exclusion 2)	nM	30.2
GCAGCAUAGUCGGAAUACGACAUACAUGAGGAUCACCCAUGUCAGGAUAUGGUCUGGAUUACAGGCCAGAAGGGACGAAGCUGC [Eli exng3 - 006] (Eterna round: R96, puzzle: Exclusion NG 3)	nM	18.4

Data request, read-out apparent KD of MS2 coat protein, for UUUUCGUCAGGAUAUUCUACUUAUUACAUGAGGAUCACCCAUGUGUAUGUACAAGGGUGUGAAGAAGGGACUUUUU [LRO-Excl5-10-mod A17d by Omei] (Eterna round: R97, puzzle: Exclusion 5)
305

Data request, read-out apparent KD of MS2 coat protein, for GGCUGCAAUGUAGGAUAUCUGCACGUGUAGUGCAGAGAAGGACAUGAGGAUCACCCAUGUAUAGUAGCUUCGGCUACAGCAGCC [ENG1-D3] (Eterna round: R96, puzzle: Exclusion NG 1)
24.6

Data request, read-out apparent KD of MS2 coat protein, for CUGCUCCGUGUAGGAUAUGCGCGCACCACCCGCGCAGAAGGACAUGAGGAUCACCCAUGUAUGUUAUUAUCACGUGUGGCGCGC [Design 38] (Eterna round: R96, puzzle: Exclusion NG 1)
12.6

Data request, read-out apparent KD of MS2 coat protein, for UAUUAGCAAGUGAGAUCCCACAUGAGGAUCACCCAUGUGCUCGUCUUAUAAGGUACUGUGACGAUAGUCACGGUACC [Mat - Sensor, turn-off var - Eli Mod - D1] (Eterna round: R97, puzzle: Sensor, turn-off variant 1)
49.9

Data request, read-out apparent KD of MS2 coat protein, for UAUCUUCAUAUCACAUGAGGAUCACCCAUGUUAUUCAUCUCGUAGGAUAUCGAGGUUUUUUUUUUCGAGAAGGACGUAUUGUUU [JR_ExcNG3_Sub078] (Eterna round: R96, puzzle: Exclusion NG 3)
183

Data request, read-out apparent KD of MS2 coat protein, for UGCGAAGAGUGAGGAUAUGUGCGACAAAGUUGCACAGAAGGCACAUGAGGAUCACCCAUGUAAGCUAGGUCGAAAGACCUAGCG [Omei Exc(NG)1 Av5] (Eterna round: R96, puzzle: Exclusion NG 1)
106

Data request, read-out apparent KD of MS2 coat protein, for UUUUUAUAUGAAGGAUAUACUUAACAUGAGGAUCACCCAUGUGGUGUUGUGAGUGAGUGAGUUUAGUAGAAGGUCAAGUAUUUA [JMF's solution 41] (Eterna round: R96, puzzle: Exclusion NG 2)
663

Data request, read-out apparent KD of MS2 coat protein, for UCAGACAUGAGGAUCACCCAUGUGUGACCCUCCUGUCUCAGUCAGGAUAUACUUUUUCAAACUUAGUAGAAGGGACAACAAAAC [Oronerused] (Eterna round: R96, puzzle: Exclusion NG 3)
37.8

Data request, read-out apparent KD of MS2 coat protein, for ACAUGAGGAUCACCCAUGUGACCACGAUGGCUGAUGUAGAGCUAGGAUAUGAGUGAAUAUCUAUCUCAGAAGGAGCUUGACUGG [Deportation 49 - Jieux - Exclusion NG 3] (Eterna round: R96, puzzle: Exclusion NG 3)
25.7

Data request, read-out apparent KD of MS2 coat protein, for GGAGGACGAGCAGGAUAUUUUCACAUGAGGAUCACCCAUGUGUAUUCAGGGUAAUCUUCCGCCGAAAAGAAGGGUUCGGAAGAA [JL ViennaUCT Socedi mod 3] (Eterna round: R96, puzzle: Exclusion NG 2)
47.1

###

# System: K4 kissing-loop RNA reporter
# protocol_notes: apparent KD of K4 kissing-loop reporter; higher = weaker reporter binding
# test_parameters: Eterna round: R107; input ligand: arginine 13.2 mM
As shown below, each of these sequences has a reported apparent KD of K4 kissing-loop reporter value.
Reply numerically in nM, unit not repeated.

Please review the following examples before continuing.
In [3]: df
Out[3]:
                            sequence_string                             measure_name  endpoint_value
0  ACGUAGUACGUAGGAUAUCAGAGAUCAGUUAGUGAGAUCGAGUGAUGUUCGAUCAUGUGUUCAGUUUGAGAAGGAUGUAGUAGGA [KL-SSFMN-B5]  apparent KD of K4 kissing-loop reporter             280
1  CGCAGUGAUGUUGCGAAUAUAAUCACGGAAGGAGCGCGUGAAAACGCAGGUAGGUCGCCGUGUGGUAUGAUGGAAACAUCGUACC [Arginine A K4 12]  apparent KD of K4 kissing-loop reporter             207

Consider the record given below.
Data request, read-out apparent KD of K4 kissing-loop reporter, for GCCGUAGAUUGAAGGAGCGCCUUCUUACCAAGAGUGAUGUUCUUUGGUACCAUGUUCAGUAGGCAGGUAGGUCGCAAUCUACGGC
258

###

As shown below, each of these sequences has a reported apparent KD of K4 kissing-loop reporter value.
# Test system: K4 kissing-loop RNA reporter;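 also: bound reporter read as fluorescence of individual clusters on recovered sequencing chips by microscopy, with normalized cluster intensities fitted with a binding model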
# protocol_notes: apparent KD of K4 kissing-loop reporter; higher = weaker reporter binding
# test_parameters: Eterna round: R107; input ligand: theophylline 20 uM
For clarity, give the value followed by its unit.

Please review the following examples before continuing.
sequence_string	apparent KD of K4 kissing-loop reporter
AGCUCAGAGUGACUCGAUAAGAGUCACAAACGAGGACCGGUACGGCCGCCACUCGAAAUAACGAGAGUGAUGUUCUCGCUGAGCA [#SwitchBubble 1 #StaticStem #K4Late]	285 nM
UAACUUGCAGUGAUGUUGCAAGAACUGGAUACCAGCAUGGAAACAUGCCCUUGGCAGCCAGAAGCUGGCUGACUGCAAGGUCAGC [Design4]	136 nM
GGGUGGCAGACGGCCGCCACUCUUAGCAGCCAGUGAGUGAUGUUCGUGGCGGAGUGAUGUUCCUAGAGGACCGGGUUUGUUGUUC [Same State Tryptophan B GF 20]	412 nM
AGGGAUGUUAAAGGAUAUAGAAAGUGAUGUUAGAAAGUGAGUGAUGUUGAUGUUAGUGAUGUUAUGUUAGAAGGUUAACAAAACG [a]	192 nM
GCAGGACGAGGAGGAGGAUGAAUUACUGAAGGAGCGCAUAUGGUUGCAGGUAGGUCGCGGUAAACAAGUAUAGUGAUGUUAUAUC [SSArgA.P]	621 nM

Consider the record given below.
Data request, read-out apparent KD of K4 kissing-loop reporter, for GCCUACGCUGCAGGAUAUAGUUACAGCGACUUAGCCGUUGUAUGUCCAUGGUUCAGUGAUGUUGAACUAGAAGGGCAGCGUAGGC [#02 K4 FMN B Exclusion]
134 nM

###

# Test system: MS2 coat protein
# protocol_notes: apparent KD of MS2 coat protein; designed switch direction (-1 OFF switch, 1 ON switch): -1; higher = weaker reporter binding
# test_parameters: input ligand: microRNA oligo, concentration not stated
As shown below, each of these sequences has a reported apparent KD of MS2 coat protein value.
Reply numerically in nM, unit not repeated.

Please review the following examples before continuing.
sequence_string	assay_system	apparent KD of MS2 coat protein [nM]
ACUAGAUGAGGAUAUACACAUUUUAGUGUUCCUCUAGAUUAACAUGAGGAUCACCCAUGUAGAAGGCAUCAAUU [Exclusion 2 - 11] (Eterna round: R96, puzzle: Exclusion 2)	MS2 coat protein	52.8
AAUUAACAUGUAGGAUAUCUGCACGUUUAGUGCAGAGAAGGACAUGAGGAUCACCCAUGUAUAGCGACUUCGGUCGCAAUAAUU [ENG1/2-B2] (Eterna round: R96, puzzle: Exclusion NG 1)	MS2 coat protein	105
CAUUAUUAUCGAGGAUAUCCUAUUGUAAUUCUGGGAGAAGGCGGACUCAACAUGAGGAUCACCCAUGUAAGACGGGUGCUAGAG [Ex NG1 #24] (Eterna round: R96, puzzle: Exclusion NG 1)	MS2 coat protein	236
AGUACUAACACGAGAGUGUUAGUACAAUAAGCUUGUGAAACAUGAGGAUCACCCAUGUCCUCAUAAGCUCGUCUUAU [salish99_TOv2_r3_029] (Eterna round: R96, puzzle: Sensor v3, turn-off variant 2)	MS2 coat protein	467

Consider the record given below.
Find apparent KD of MS2 coat protein (MS2 coat protein) for the entry GGCACACAUGUAGGAUAUCUGCACGAUUAGUGCAGAGAAGGACAUGAGGAUCACCCAUGUAAUUAAGAUCAAUUAUUAAGUGCC [ENG1/3-A1] (Eterna round: R96, puzzle: Exclusion NG 1)
50
